Tested on: KM12 colon
experimentSummary: NCI tumour cell line growth inhibition, 48 h

molecule: COc1ccc(OC)c2c(C)ccnc12
TGI: > 100 µM
--
molecule: CCN(CC)CCCNCc1cc(-c2ccccc2)nc2cc(Cl)ccc12
TGI: 4.82 µM
--
molecule: CC/C=C/c1cc2c(cc1O)CCC1C2CC[C@@]2(C)C1CC[C@@H]2O (some centres not stated)
TGI: 15 µM
--
molecule: CCOC(=O)C1CCC(=O)N1C(=O)c1cccc(Cl)c1 (configuration not stated)
TGI: > 100 µM
--
molecule: COc1c(OC)c(OC)c2c(=O)cc(-c3ccc(OC(C)C)cc3)oc2c1OC
TGI: > 100 µM
--
molecule: CC(C)(C)c1cc(OCc2nnc3sc(Cc4ccccc4)nn23)c(Cl)cc1OCc1nnc2sc(Cc3ccccc3)nn12
TGI: 57.2 µM
--
molecule: CC(C)OP(=O)(OC(C)C)C(C(C)C)N(C)C(N)=NC#N (configuration not stated)
TGI: > 100 µM
--
molecule: Cc1ccc(S(=O)(=O)OCCC2CN(C(=O)OCc3ccccc3)C(C)(C)O2)cc1 (configuration not stated)
TGI: 12.4 µM
--
molecule: c1ccc2c(Nc3ncco3)cccc2c1
TGI: > 10 µM
--
molecule: CC(C)=Cc1cc(C)c2ccc(C)c3c2c1C(C)=C(O)C3=O
TGI: > 100 µM
--
molecule: C/C(=C\Cc1ccc(F)cc1)CCCCCC/C(C)=C/Cc1ccc(F)cc1
TGI: 5.61 µM
--
molecule: CN1CCC(c2c(O)cc(O)c3c(=O)cc(-c4ccccc4Cl)oc23)C(O)C1 (configuration not stated)
TGI: > 100 µM
--
molecule: O=c1c2ccccc2oc2ccccc12 (tested in a mixture with another compound)
TGI: > 100 µM
--
molecule: Cn1c2ccc(Cl)cc2c2ccc3c(c21)C(=O)C=CC3=O
TGI: > 10 µM
--
molecule: O=C(O)CSC1=NNC2(C(=O)N1)c1ccccc1-c1ccccc12
TGI: > 10 µM
--
molecule: c1cc2cc3c4c5c(cc6ccc7cc8cc9c%10c8c8c7c6c5c8c5c%10c(c1C9N1CCOCCOCCOCCOCCOCC1)c2c45)C3 (configuration not stated)
TGI: > 100 µM
--
molecule: CCOc1ccc2nc3nc(=O)[nH]c(C)c3c(NC(C)(CO)CO)c2c1
TGI: > 100 µM
--
molecule: Cc1ccc(N2C(=O)C3CSCN3C2=O)cc1 (configuration not stated)
TGI: > 100 µM
--
molecule: O=C1CC(c2cccc(Cl)c2)Oc2ccccc21 (configuration not stated)
TGI: 39.5 µM
--
molecule: O=C1CC(C2(O)C(=O)Nc3ccc([N+](=O)[O-])cc32)c2ccccc21 (configuration not stated)
TGI: 98.6 µM
--
molecule: COC(=O)CCC(=O)NC1=C(Nc2ccccc2)C(=O)c2ccccc2C1=O
TGI: 32.5 µM
--
molecule: CCCC(O)c1cn(-c2cccc(S(=O)(=O)O)c2)nn1 (configuration not stated)
TGI: > 100 µM
--
molecule: O=C1C=CC(=O)c2c1ccc1c3ccccc3n(Cc3ccccc3)c21
TGI: > 100 µM
--
molecule: Cc1cc2c(c(C(=O)NCC(=O)O)c1)Oc1c(cc(C)cc1C(=O)NCC(=O)O)S2
TGI: > 100 µM
--
molecule: CS(=O)(=O)c1ccc(COP(N)(=O)N(CCCl)CCCl)cc1 (configuration not stated)
TGI: > 100 µM
--
molecule: CC1=C(CO)C(=O)O[C@@H]([C@@H](C)[C@H]2CC[C@H]3[C@@H]4C[C@H]5O[C@]56[C@@H](O)C=CC(=O)[C@]6(C)[C@H]4CC[C@]23C)C1
TGI: 1.82 µM
--
molecule: N/N=C(/N)SCCCCCCCCCCS/C(N)=N/N
TGI: 67.3 µM
--
molecule: CC(=O)CC(=O)N1CCSC1=S
TGI: > 10 µM
--
molecule: O=C1C(Cl)=C(Cl)C(=O)N1c1ccc(Cl)c(Cl)c1Cl
TGI: > 100 µM
--
molecule: COc1ccc(C2NN=C3c4ccccc4CCC32)cc1 (configuration not stated)
TGI: > 100 µM
--
molecule: NC1=NC(SCc2ccccc2CCl)c2ncn(Cc3ccccc3CCl)c2N1 (configuration not stated)
TGI: 3.6 µM
--
molecule: N#C/C(=C/N1CCN(C(=O)c2ccco2)C1=S)C(=O)Nc1ccc(Cl)cc1
TGI: > 50 µM
--
molecule: CCCCCCCCCCCNC=O
TGI: > 100 µM
--
molecule: COc1ccc(NC(=O)CC(=O)N/N=C(\C)c2cc3ccccc3oc2=O)cc1
TGI: > 100 µM
--
molecule: COc1cc(OC)c2c(=O)cc(-c3ccccc3OCc3ccccc3)oc2c1OC
TGI: 16.2 µM
--
molecule: CCN1CCN(c2cc(C(=O)Nc3cccc(Nc4ccc5c(OC)cccc5n4)c3)cc(C(F)(F)F)c2)CC1
TGI: 6.35 µM
--
molecule: CCCCC#Cc1c(I)n(C2OC(CO[Si](C)(C)C(C)(C)C)C3OC(C)(C)OC32)c(=O)n(C(=O)c2ccccc2)c1=O (configuration not stated)
TGI: 3.05 µM
--
molecule: CCC(C)(O)c1cn(-c2ccc(Cl)cc2)nn1 (configuration not stated)
TGI: > 100 µM
--
molecule: CCOC(=O)c1cc2c3c(c(C(C)=O)c(OC)c2[nH]1)N(C(=O)CC)CC3
TGI: 26.3 µM
--
molecule: O=c1[nH]c2ccccc2c(O)c1/C=N/C(=S)NC1CCCCC1
TGI: > 100 µM
--
molecule: CCCCNS(=O)(=O)c1ccc(-c2ccc3c(c2)-c2ccc(S(=O)(=O)NCCCC)cc2S3(=O)=O)cc1
TGI: > 100 µM
--
molecule: FC(F)c1ncc(-c2ccc(C(F)(F)F)cc2)c(NC2CCCCCC2)n1
TGI: > 10 µM
